tested on: GST-Bcl-2; experiment: TR-FRET binding assay, Bcl-2; settings: TR-FRET Ki values
Value Type: Binding selectivity ratio (Bcl-XL Ki/Bcl-2 Ki)

Field: example entries. Status: answers known.
Compound	Result
CC1(C)CCC(CN2CCN(c3ccc(C(=O)NS(=O)(=O)c4ccc(NC5CCC(N6CCOCC6)CC5)c([N+](=O)[O-])c4)c(Oc4ccc5[nH]ccc5c4)c3)CC2)=C(c2ccc(Cl)cc2)C1 (centres unmarked) [EXAMPLE 363]	>3670.5
CC(c1ccccc1-c1ccc(Cl)cc1)N1CCN(c2ccc(C(=O)NS(=O)(=O)c3ccc(NC4CCN(C)CC4)c([N+](=O)[O-])c3)c(Oc3cccc4[nH]ccc34)c2)CC1 (centres unmarked) [EXAMPLE 206]	>7916.4
CC(c1ccccc1-c1ccc(Cl)cc1)N1CCN(c2ccc(C(=O)NS(=O)(=O)c3ccc(NCC4CCOCC4)c([N+](=O)[O-])c3)c(Oc3ccc4[nH]ccc4c3)c2)CC1 (centres unmarked) [EXAMPLE 252]	>8570.3
CC1(C)CCC(c2ccc(Cl)cc2)=C(CN2CCN(c3ccc(C(=O)NS(=O)(=O)c4ccc(NCC5CCOCC5)c([N+](=O)[O-])c4)c(Oc4ccc5[nH]ccc5c4)c3)CC2)C1 [EXAMPLE 290]	>1808.5

Now examine the next entry.
Query: Find the measured Binding selectivity ratio (Bcl-XL Ki/Bcl-2 Ki): item CC1(C)CCC(CN2CCN(c3ccc(C(=O)NS(=O)(=O)c4ccc(S(C)(=O)=O)cc4)c(Oc4cccc5[nH]ccc45)c3)CC2)=C(c2ccc(Cl)cc2)C1 [EXAMPLE 383] , target or system GST-Bcl-2.
Result: >304.1

----------
tested on: GST-Bcl-2; test: TR-FRET binding assay, Bcl-2; conditions: TR-FRET Ki values
Give measured Binding selectivity ratio (Bcl-XL Ki/Bcl-2 Ki) for each item. Keep answers brief.

Please review the following examples before continuing.
Smiles String	Result
CC1(C)CCC(CN2CCN(c3ccc(C(=O)NS(=O)(=O)c4ccc(NCC(F)F)c([N+](=O)[O-])c4)c(Oc4ccc5[nH]ccc5c4)c3)CC2)=C(c2ccc(Cl)cc2)C1	>1309.5
CC1(C)CCC(CN2CCN(c3ccc(C(=O)NS(=O)(=O)c4ccc(S(C)(=O)=O)cc4)c(Oc4ccc5[nH]ccc5c4)c3)CC2)=C(c2ccc(Cl)cc2)C1	>573.9

Query: I have this compound here, CC1(C)CCC(CN2CCN(c3ccc(C(=O)NS(=O)(=O)c4ccc(NCC5CCS(=O)(=O)CC5)c([N+](=O)[O-])c4)c(Oc4cccc5[nH]ccc45)c3)CC2)=C(c2ccc(Cl)cc2)C1 , and I need its recorded Binding selectivity ratio (Bcl-XL Ki/Bcl-2 Ki).
Result: >2268.0

----------
tested on: GST-Bcl-2; experiment: TR-FRET binding assay, Bcl-2; details: TR-FRET Ki values
Value Type: Binding selectivity ratio (Bcl-XL Ki/Bcl-2 Ki)

Molecule	Tgt	Result
CC1(C)CCC(CN2CCN(c3ccc(C(=O)NS(=O)(=O)c4ccc(NC5CCN(Cc6nccs6)CC5)c([N+](=O)[O-])c4)c(Oc4ccc5[nH]ccc5c4)c3)CC2)=C(c2ccc(Cl)cc2)C1 [EXAMPLE 230]	GST-Bcl-2	>74.8
CC1(C)CCC(CN2CCN(c3ccc(C(=O)NS(=O)(=O)c4ccc(CCC5OCCO5)c([N+](=O)[O-])c4)c(Oc4ccc5[nH]ccc5c4)c3)CC2)=C(c2ccc(Cl)cc2)C1 [EXAMPLE 278]	GST-Bcl-2	>929.4
CC1(C)CCC(CN2CCN(c3ccc(C(=O)NS(=O)(=O)c4ccc(NC5(CO)CCOCC5)c([N+](=O)[O-])c4)c(Oc4ccc5[nH]ccc5c4)c3)CC2)=C(c2ccc(Cl)cc2)C1 [EXAMPLE 240]	GST-Bcl-2	>795.4

# map each molecule to its Binding selectivity ratio (Bcl-XL Ki/Bcl-2 Ki)
1. CN(C)CCCc1cccc(-c2ccc(Cl)cc2)c1CN1CCN(c2ccc(C(=O)NS(=O)(=O)c3ccc(NCC4CCOCC4)c([N+](=O)[O-])c3)c(Oc3cccc4[nH]ccc34)c2)CC1 [EXAMPLE 196]
2. O=C(NS(=O)(=O)c1ccc(NCC2CCOCC2)c([N+](=O)[O-])c1)c1ccc(N2CCN(Cc3cc(OCCO)ccc3-c3ccc(Cl)cc3)CC2)cc1Oc1cccc2[nH]ccc12 [EXAMPLE 213]

Result:
1: >20552.4; 2: >66000

----------
Exercise: for every item that follows, state its recorded Binding selectivity ratio (Bcl-XL Ki/Bcl-2 Ki).
system: GST-Bcl-2; experiment: TR-FRET binding assay, Bcl-2; details: TR-FRET Ki values
One number for each entry.

// below: answered molecules
Molecule	Numeric Readout
CC1(C)CCC(CN2CCN(c3ccc(C(=O)NS(=O)(=O)c4ccc(NCCCN5CCOCC5)c(S(=O)(=O)C(F)(F)F)c4)c(Oc4ccc5[nH]ccc5c4)c3)CC2)=C(c2ccc(Cl)cc2)C1 [EXAMPLE 348]	97.1
CC1(C)CCC(CN2CCN(c3ccc(C(=O)NS(=O)(=O)c4ccc(NCCC#N)c([N+](=O)[O-])c4)c(Oc4cccc5[nH]ccc45)c3)CC2)=C(c2ccc(Cl)cc2)C1 [EXAMPLE 320]	103.6

Dear reader, for each entry below, please note its Binding selectivity ratio (Bcl-XL Ki/Bcl-2 Ki).
1. CN1CCC(CNc2ccc(S(=O)(=O)NC(=O)c3ccc(N4CCN(CC5=C(c6ccc(Cl)cc6)CC(C)(C)CC5)CC4)cc3Oc3cccc4[nH]ccc34)cc2[N+](=O)[O-])CC1 [Example 105]
2. CN1CCC(O)(CCNc2ccc(S(=O)(=O)NC(=O)c3ccc(N4CCN(CC5=C(c6ccc(Cl)cc6)CC(C)(C)CC5)CC4)cc3Oc3ccc4[nH]ccc4c3)cc2[N+](=O)[O-])CC1 [EXAMPLE 211]

Result:
[62.7, 651.1]

----------
Please respond with reported Binding selectivity ratio (Bcl-XL Ki/Bcl-2 Ki) for every item in the list.
Tested on: GST-Bcl-2
Assay: TR-FRET binding assay, Bcl-2
Details: TR-FRET Ki values
Protocol: Tb-anti-GST antibody was purchased from Invitrogen (Catalog No. PV4216). […] The samples were then mixed on a shaker for 1 minute and incubated for an additional 3 hours at room temperature. […] Fluorescence was measured on the Envision (Perkin Elmer) using a 340/35 nm excitation filter and 520/525 (F-Bak peptide) and 495/510 nm (Tb-labeled anti-Histidine antibody) emission filters. […]

Worked examples follow.
Compound	Result
COc1ccc(S(=O)(=O)NC(=O)c2ccc(N3CCN(Cc4ccccc4-c4ccc(Cl)cc4)CC3)cc2Oc2ccccc2)cc1 [Example 60]	>34.9
CC(C)n1cc(CN2CCN(c3ccc(C(=O)NS(=O)(=O)c4ccc(NCC5CCOCC5)c([N+](=O)[O-])c4)c(Oc4ccc5[nH]ccc5c4)c3)CC2)c(-c2ccc(Cl)cc2)cc1=O [EXAMPLE 307]	>177.1

// switching to the query compound
Query: Consider the compound CC(C)(C)c1ccc(CN2CCN(c3ccc(C(=O)NS(=O)(=O)c4ccc(NCC5CCOCC5)c([N+](=O)[O-])c4)c(Oc4ccc5[nH]ccc5c4)c3)CC2)c(-c2ccc(Cl)cc2)c1 [EXAMPLE 341] and give its measured Binding selectivity ratio (Bcl-XL Ki/Bcl-2 Ki).
Result: >50.8

----------
system: FL5.12/Bcl-2 cells; assay: FL5.12/Bcl-2 cell viability assay; assay type: cell-based, murine; conditions: ratio of canine platelet EC50 to FL5.12/Bcl-2 EC50
Assign class by Selectivity Ratio (Platelet EC50/FL5.12/Bcl-2 EC50): not lower than 800 means satisfied; lower than 800 means not satisfied.

Answered examples (3):
Smiles String	Tgt	Group
CN1CCC(CNc2ccc(S(=O)(=O)NC(=O)c3ccc(N4CCN(CC5=C(c6ccc(Cl)cc6)CC(C)(C)CC5)CC4)cc3Oc3cccc4[nH]ccc34)cc2[N+](=O)[O-])CC1	FL5.12/Bcl-2 cells	satisfied
CN(C)CCOc1cccc(-c2ccc(Cl)cc2)c1CN1CCN(c2ccc(C(=O)NS(=O)(=O)c3ccc(NCCCN4CCCC4)c([N+](=O)[O-])c3)c(Oc3ccc4[nH]ccc4c3)c2)CC1	FL5.12/Bcl-2 cells	not satisfied
CN1CCC(Nc2ccc(S(=O)(=O)NC(=O)c3ccc(N4CCN(CC5=C(c6ccc(Cl)cc6)CC(C)(C)CC5)CC4)cc3Oc3ccc4[nH]ccc4c3)cc2[N+](=O)[O-])CC1	FL5.12/Bcl-2 cells	satisfied

Query: // inclusive: Selectivity Ratio (Platelet EC50/FL5.12/Bcl-2 EC50) at least 800? input: CN1CCN(CCCNc2ccc(S(=O)(=O)NC(=O)c3ccc(N4CCN(Cc5ccccc5-c5ccc(Cl)cc5)CC4)cc3Oc3ccccc3)cc2[N+](=O)[O-])CC1
Result: not satisfied

Query: Given CC(C)N(CCOc1ccc(-c2ccc(Cl)cc2)c(CN2CCN(c3ccc(C(=O)NS(=O)(=O)c4ccc(NCC5CCOCC5)c([N+](=O)[O-])c4)c(Oc4ccccc4)c3)CC2)c1)C(C)C , state whether its Selectivity Ratio (Platelet EC50/FL5.12/Bcl-2 EC50) is at least 800.
Result: satisfied
